The reported measurements were obtained from patent US5109024A.

We begin with a simple list: items and their reported response vs control in vivo at 10 mg/kg.
Test system: L1210 leukemia
assay.method.text: animal or person
Format: in vivo, mice (BDFl male)
measurement.conditions: Mus musculus, L1210, ip; 10 mg/Kg/day, days 1-5; read-out: % T/C (mean survival time treated/mean survival time control ×100)
Protocol: The following study of the antitumor activity of the compounds of formula (I) against L1210 leukemia illustrates this aspect of the present invention. Groups of 6 mice (BDFl male) were inoculated i.p. with 10^5 L1210 leukemia cells on day 0. […] Relative survival time was determined and expressed as % T/C (mean survival time treated/mean survival time control ×100). Presence or absence of delayed toxicity was determined by an examination o the animal's external appearance and behavior during the study. […]
Could you give the number and then its unit, please?

Illustrative cases are given below, each with its answer.
INSERT INTO results (compound, data_value) VALUES
  ('CNCC(C)CNCCCCCCCNCC(C)CNC (centres unmarked) [Compound 28600]', '132%'),
  ('CCNCCCNCCCCCCCNCCCNCC [Compound 28314]', '200%'),
  ('CNCCCNCCCCCCCNCCCNC [Compound 28249]', '110%');

Would you kindly share the measured response vs control in vivo at 10 mg/kg for CC(N)CCNCCCCCCCNCCC(C)N (centres unmarked) [Compound 28516, reference compound] ?
200%

Do the same for CNC(C)CCNCCCCCCCNCCC(C)NC (centres unmarked) [Compound 101060] please
180%
